These measurements were taken from ChEMBL document CHEMBL1157539.

system: HepG2; experiment: GSK_TCMDC: Percent inhibition of human HepG2 cell line. Test compounds present at 10uM.; format: functional

[
  {
    "COMPOUND SMILES": "O=C(Cc1ccccn1)Nc1cccc(-c2cccc(-c3nc4cc(C(F)(F)F)ccc4[nH]3)c2)c1",
    "UNIT TEXT": "%",
    "Inhibition": 26
  },
  {
    "COMPOUND SMILES": "COc1cc2nc(N3CCC(CNC(=O)c4ccc(-c5ccc(C#N)cc5C)cc4)CC3)nc(N)c2cc1OC",
    "UNIT TEXT": "%",
    "Inhibition": 28
  },
  {
    "COMPOUND SMILES": "CN(C)CCN(Cc1ccc(-c2ccc(CNCCc3ccccc3)cc2)nc1)C(=O)CCC1CCCC1.O=C(O)C(F)(F)F",
    "UNIT TEXT": "%",
    "Inhibition": 98
  },
  {
    "COMPOUND SMILES": "CCc1ccc(NC(=O)c2ccc(CN3CCCN(Cc4cccs4)CC3)cc2)cc1.O=C(O)C(F)(F)F",
    "UNIT TEXT": "%",
    "Inhibition": 57
  },
  {
    "COMPOUND SMILES": "O=C(Nc1cccc(CN2CCCN(Cc3ccc4c(c3)OCO4)CC2)c1)c1ccc(Cl)c(Cl)c1.O=C(O)C(F)(F)F",
    "UNIT TEXT": "%",
    "Inhibition": 34
  },
  {
    "COMPOUND SMILES": "Oc1ccc(Cl)c2c1C(c1ccccc1)=NCC2",
    "UNIT TEXT": "%",
    "Inhibition": 0
  },
  {
    "COMPOUND SMILES": "O=C(Nc1cccc(C(F)(F)F)c1)Nc1ccc(F)c([N+](=O)[O-])c1",
    "UNIT TEXT": "%",
    "Inhibition": 43
  },
  {
    "COMPOUND SMILES": "Cc1nc2c(Nc3nc(-c4ccncc4)cs3)ncnc2n1-c1ccccc1Cl",
    "UNIT TEXT": "%",
    "Inhibition": 14
  },
  {
    "COMPOUND SMILES": "O=C(Nc1cc(Cl)cc(Cl)c1)Nc1ccccc1C(=O)NC1CCCCC1",
    "UNIT TEXT": "%",
    "Inhibition": 12
  }
]

###

system: Plasmodium falciparum; test: GSK_TCMDC: Inhibition of Plasmodium falciparum 3D7 in whole red blood cells, using parasite LDH activity as an index of growth. Test compounds present at 2uM; assay type: functional
The entries below are paired with their reported Inhibition.
MEASURED ATTRIBUTE: Inhibition (%)

[
  {
    "COMPOUND SMILES": "Cl.O=C(Nc1ccc2c(c1)CCN(C1CCC1)CC2)c1ccc(-c2cn3ccccc3n2)cc1",
    "UNIT TEXT": "%",
    "ASSAY VALUE": 100
  },
  {
    "COMPOUND SMILES": "CCN(CCNC(=O)Cn1c(C)cc2cc([N+](=O)[O-])ccc21)c1cccc(C)c1",
    "UNIT TEXT": "%",
    "ASSAY VALUE": 97
  },
  {
    "COMPOUND SMILES": "CCCN(C(=O)c1ccccc1C)c1nnc(-c2ccccc2C)s1",
    "UNIT TEXT": "%",
    "ASSAY VALUE": 90
  },
  {
    "COMPOUND SMILES": "CCNc1cc(C(=O)N[C@@H](Cc2ccccc2)[C@H](O)CNCc2cccc(OC)c2C)cc(N2CCCCS2(=O)=O)c1.O=CO",
    "UNIT TEXT": "%",
    "ASSAY VALUE": 97
  },
  {
    "COMPOUND SMILES": "CN(C)C1CCN(CC#Cc2cc3ncnc(Nc4ccc(OCc5cccc(F)c5)c(Cl)c4)c3s2)CC1",
    "UNIT TEXT": "%",
    "ASSAY VALUE": 85
  }
]
